Values compiled from ChEMBL document CHEMBL1148334.

# Species: Homo sapiens
# method: Inhibitory concentration against SFLLR-NH2 (2.5 uM) induced platelet aggregation in human platelet-rich plasma
# Type: functional, organism-based
observed property: pIC50
Hey, just a heads up that pIC50 is the negative log base 10 of the concentration in molar.

// lookup pIC50 for NC(N)=NCCCCCC(=O)N1CCN(C(=O)C(N)Cc2ccccc2)CC1 (configuration not stated) 3.43

Please give the measured pIC50 for this compound: N=C(N)NCCCCCC(=O)N1CCN(C(=O)Cc2ccccc2)CC1 3.11

* * *

# method: Relative potency (REC) is the ratio of concentration of compound to the concentration of SFLLR-NH2 for producing equal relaxing effect on the isolated rat aortic rings
# Format: functional, Aorta
Would you mind telling me the reported Relative potency of each entry?
Answer field: number only, no words.

I have this compound here, NC(N)=NCCCCCC(=O)N1CCN(C(=O)C(N)Cc2ccccc2)CC1 (stereo unspecified) , and I need its recorded Relative potency. 38.2

Requested field: Relative potency. Item: N=C(N)NCCCCCC(=O)NCC1CCN(C(=O)Cc2ccccc2)CC1 0.06

# lookup: Relative potency of N=C(N)NCCCCCC(=O)NC1CCN(C(=O)Cc2ccccc2)C1 (stereo unspecified) 17.3

Entry NC(N)=NCCCCCC(=O)NCC1CCN(C(=O)C(N)Cc2ccccc2)CC1 (stereo unspecified) has what Relative potency? 13.6

I would be grateful if you could share the reported Relative potency for NC(N)=NCCCCCC(=O)NC1CCN(C(=O)C(N)Cc2ccccc2)C1 (stereo unspecified) . 24

Name the recorded Relative potency for N=C(N)NCCCCCC(=O)N1CCN(C(=O)Cc2ccccc2)CC1 . 0.19
